Target: Adrenergic receptor alpha-2 (Rattus norvegicus, UniProt P22086+P19328+P22909)
Sequence (P22086 whole entry): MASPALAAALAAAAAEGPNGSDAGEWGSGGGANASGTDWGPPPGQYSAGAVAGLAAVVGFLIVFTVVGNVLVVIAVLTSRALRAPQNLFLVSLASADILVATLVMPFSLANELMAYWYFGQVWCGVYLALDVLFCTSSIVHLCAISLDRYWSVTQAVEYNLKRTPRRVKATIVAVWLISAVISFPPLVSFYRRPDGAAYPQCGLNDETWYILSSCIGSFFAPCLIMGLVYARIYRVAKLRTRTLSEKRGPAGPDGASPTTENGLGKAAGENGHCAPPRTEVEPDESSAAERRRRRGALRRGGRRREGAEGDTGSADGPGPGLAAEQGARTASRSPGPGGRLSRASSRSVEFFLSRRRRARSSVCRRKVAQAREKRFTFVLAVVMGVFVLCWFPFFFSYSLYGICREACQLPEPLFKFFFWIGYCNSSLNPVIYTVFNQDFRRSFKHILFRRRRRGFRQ
Sequence (P19328 whole entry): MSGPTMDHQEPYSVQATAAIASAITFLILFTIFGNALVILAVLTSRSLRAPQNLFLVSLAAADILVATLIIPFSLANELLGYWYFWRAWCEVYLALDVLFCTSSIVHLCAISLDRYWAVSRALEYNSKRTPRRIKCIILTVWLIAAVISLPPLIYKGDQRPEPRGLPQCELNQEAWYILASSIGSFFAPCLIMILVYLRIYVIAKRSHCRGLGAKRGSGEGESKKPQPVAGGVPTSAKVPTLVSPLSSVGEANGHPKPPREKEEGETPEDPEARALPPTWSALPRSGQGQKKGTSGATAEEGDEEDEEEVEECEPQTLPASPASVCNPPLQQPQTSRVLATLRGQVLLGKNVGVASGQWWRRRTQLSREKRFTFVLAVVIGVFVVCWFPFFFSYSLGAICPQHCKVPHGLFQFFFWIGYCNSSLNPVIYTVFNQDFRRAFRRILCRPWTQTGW
Sequence (P22909 whole entry): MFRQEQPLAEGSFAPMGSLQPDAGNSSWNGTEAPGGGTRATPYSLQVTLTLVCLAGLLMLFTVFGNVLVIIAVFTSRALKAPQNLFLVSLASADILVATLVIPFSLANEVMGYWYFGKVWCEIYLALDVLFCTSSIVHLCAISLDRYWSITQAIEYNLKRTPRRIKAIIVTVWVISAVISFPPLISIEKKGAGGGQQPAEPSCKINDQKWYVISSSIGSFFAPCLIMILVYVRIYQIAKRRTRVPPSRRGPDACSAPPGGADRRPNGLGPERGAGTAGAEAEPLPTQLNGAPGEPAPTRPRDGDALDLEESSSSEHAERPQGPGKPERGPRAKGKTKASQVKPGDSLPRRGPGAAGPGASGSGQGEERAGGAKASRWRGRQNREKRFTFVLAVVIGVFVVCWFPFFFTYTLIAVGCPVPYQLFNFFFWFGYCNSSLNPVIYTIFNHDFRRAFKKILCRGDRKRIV
Assay: Displacement of [3H]yohimbine from rat brain cortex adrenergic alpha2 receptor after 30 mins by liquid scintillation counting
measured.parameter: Ki (nM)

Here's what some known entries look like.
compound.structure: N#C/N=C(\NCCCN1CCN(c2cccc(Cl)c2)CC1)c1ccccn1
measured.parameter: Ki
unit.symbol: nM
quantitative.readout: 1360
--
compound.structure: COc1ccccc1N1CCN(CCCN/C(=N\C#N)c2ccccn2)CC1
measured.parameter: Ki
unit.symbol: nM
quantitative.readout: 245

I: N#C/N=C(\NCCCN1CCN(Cc2ccc3c(c2)OCO3)CC1)c1ccccn1
II: Cc1cccc(N2CCN(CCCN/C(=N\C#N)c3ccccn3)CC2)c1C
III: CCOc1ccccc1N1CCN(CCCN/C(=N\C#N)c2ccccn2)CC1
Order the 3 molecules from highest to lowest Ki. Answer by listing the labels in the requested order.
I, III, II
(I: 964 nM, III: 571 nM, II: 318 nM)
